src = ChEMBL document CHEMBL3885881

- Species on record: Rattus norvegicus
- assayText: DrugMatrix - Regimen: Daily Repeat
- Format: toxicity, organism-based, Sprague-Dawley
- Design: regimen Daily Repeat, gender Male, age 6-8 weeks
- condition: in vivo, po, 0 mg/kg, 120 h, tissue Blood, route oral GAVAGE, dose level Control, time 5 day, […]
Examples of molecules with documented MEAN CORPUSCULAR HEMOGLOBIN follow.
propertyLabel: MEAN CORPUSCULAR HEMOGLOBIN (pg)

• COCc1c(C(C)C)nc(C(C)C)c(/C=C/[C@@H](O)C[C@@H](O)CC(=O)O)c1-c1ccc(F)cc1 = 24.42
• CC1=C(/C=C/C(C)=C/C=C/C(C)=C\C(=O)O)C(C)(C)CCC1 = 24.68
• C=CCN = 21.57
• CCCC[C@@H](CC)COC(=O)c1ccccc1C(=O)OC[C@@H](CC)CCCC [BIS(2-ETHYLHEXYL)PHTHALATE] = 23.83
• CSc1ccc2c(c1)N(CCC1CCCCN1C)c1ccccc1S2 (centres undefined) = 23.25
• CC(C)(Oc1ccc(CCNC(=O)c2ccc(Cl)cc2)cc1)C(=O)O [BEZAFIBRATE] = 20.58
• c1ccc2[nH]c(-c3cscn3)nc2c1 = 23.83
• CN(C)CCCC1(c2ccc(F)cc2)OCc2cc(C#N)ccc21 (centres undefined) = 25.7
• CC(=O)[C@H]1CC[C@H]2[C@@H]3CCC4=CC(=O)CC[C@]4(C)[C@H]3CC[C@]12C = 25.7

====

Examples of compounds with documented MONOCYTE follow.
- Organism: Rattus norvegicus
- assayText: DrugMatrix - Regimen: Daily Repeat
- Type: toxicity, organism-based, Sprague-Dawley
- Set-up: regimen Daily Repeat, gender Male, age 6-8 weeks
- condition: in vivo, po, 0 mg/kg, 120 h, tissue Blood, route oral GAVAGE, dose level Control, time 5 day, […]
propertyLabel: MONOCYTE

• CN(C)CCCC1(c2ccc(F)cc2)OCc2cc(C#N)ccc21 (centres undefined) [CITALOPRAM] = 3.33%
• COCc1c(C(C)C)nc(C(C)C)c(/C=C/[C@@H](O)C[C@@H](O)CC(=O)O)c1-c1ccc(F)cc1 [CERIVASTATIN] = 0.83%
• Oc1c(Cl)cc(Cl)cc1Sc1cc(Cl)cc(Cl)c1O [BITHIONOL] = 0.67%
• CC(C)(Oc1ccc(CCNC(=O)c2ccc(Cl)cc2)cc1)C(=O)O [BEZAFIBRATE] = 2.16%
• CCCC[C@@H](CC)COC(=O)c1ccccc1C(=O)OC[C@@H](CC)CCCC [BIS(2-ETHYLHEXYL)PHTHALATE] = 0.33%
• O=[N+]([O-])c1cc([As](=O)(O)O)ccc1O [ROXARSONE] = 2.16%
• CC(=O)[C@H]1CC[C@H]2[C@@H]3CCC4=CC(=O)CC[C@]4(C)[C@H]3CC[C@]12C [PROGESTERONE] = 3.33%
• Cn1cnc([N+](=O)[O-])c1Sc1ncnc2nc[nH]c12 [AZATHIOPRINE] = 2.33%
• COC1=CC(=O)C[C@@H](C)[C@]12Oc1c(Cl)c(OC)cc(OC)c1C2=O [GRISEOFULVIN] = 1%

====

- Organism: Rattus norvegicus
- assayText: DrugMatrix - Regimen: Daily Repeat
- Assay type: toxicity, organism-based, Sprague-Dawley
- Set-up: regimen Daily Repeat, gender Male, age 6-8 weeks
- condition: in vivo, po, 0 mg/kg, 120 h, tissue Plasma, route oral GAVAGE, dose level Control, time 5 day, vehicle 100 % WATER
Examples of compounds with documented TOTAL PROTEIN follow.
propertyLabel: TOTAL PROTEIN (G/DL)

- CC(CCc1ccccc1)NCC(O)c1ccc(O)c(C(N)=O)c1 (stereo not given) [LABETALOL]: 6.22
- CC1(C)S[C@@H]2[C@H](NC(=O)[C@H](N)c3ccc(O)cc3)C(=O)N2[C@H]1C(=O)O [AMOXICILLIN]: 6.43
- NCC1(CC(=O)O)CCCCC1 [GABAPENTIN]: 6.15
- CN1CCN(C(=O)OC2c3nccnc3C(=O)N2c2ccc(Cl)cn2)CC1 (stereo not given) [ZOPICLONE]: 5.98
- CC1COc2c(N3CCN(C)CC3)c(F)cc3c(=O)c(C(=O)O)cn1c23 (stereo not given) [OFLOXACIN]: 6
- Nc1ccc(S(=O)(=O)Nc2ccnn2-c2ccccc2)cc1 [SULFAPHENAZOLE]: 6.12
- CN1CCC[C@H]1c1cccnc1 [NICOTINE]: 6
- CNCCC=C1c2ccccc2CCc2ccccc21 [NORTRIPTYLINE]: 6.1
- CC(C)(S)[C@@H](N)C(=O)O [PENICILLAMINE]: 6.05
- COc1cc2c(N3CCN(C(=O)Nc4ccc(OC(C)C)cc4)CC3)ncnc2cc1OCCCN1CCCCC1 [TANDUTINIB]: 6.3

====

- Species: Rattus norvegicus
- assayText: DrugMatrix - Regimen: Daily Repeat
- Format: toxicity, organism-based, Sprague-Dawley
- Parameters: regimen Daily Repeat, gender Male, age 6-8 weeks
- condition: in vivo, ip, 5 mg/kg, 120 h, tissue Blood, route intraperitoneal, dose level High, time 5 day, vehicle 100 % SALINE
propertyLabel: ABSOLUTE BASOPHIL (cells/µL)

- CARBOPLATIN: 26

====

- Species: Rattus norvegicus
- assayText: DrugMatrix - Regimen: Daily Repeat
- Format: toxicity, organism-based, Sprague-Dawley
- Set-up: regimen Daily Repeat, gender Male, age 6-8 weeks
- condition: in vivo, po, 0 mg/kg, 72 h, tissue Blood, route oral GAVAGE, dose level Control, time 3 day, vehicle .5 % CMC
propertyLabel: MEAN CORPUSCULAR HEMOGLOBIN

* COC(=O)c1ccc(O)cc1 | 24.78 pg
* CC1(C)[C@H]2CC[C@]1(C)C(=O)C2 [(-)-CAMPHOR] | 23.37 pg
* COc1c(C)c2c(c(O)c1C/C=C(\C)CCC(=O)OCCN1CCOCC1)C(=O)OC2 [MYCOPHENOLATE MOFETIL] | 25.1 pg
* Brc1ccccc1 | 23.15 pg
* CN1C(C(=O)Nc2ccccn2)=C(O)c2ccccc2S1(=O)=O | 23.64 pg
* CC[C@H]1OC(=O)[C@H](C)[C@@H](O[C@H]2C[C@@](C)(OC)[C@@H](O)[C@H](C)O2)[C@H](C)[C@@H](O[C@@H]2O[C@H](C)C[C@H](N(C)C)[C@H]2O)[C@](C)(O)C[C@@H](C)/C(=N\OCOCCOC)[C@H](C)[C@@H](O)[C@]1(C)O | 19.57 pg
* CCc1cccc2c3c([nH]c12)C(CC)(CC(=O)O)OCC3 (centres undefined) | 19.57 pg
* Cc1c(-c2ccccc2)oc2c(C(=O)OCCN3CCCCC3)cccc2c1=O [FLAVOXATE] | 25.38 pg
* C[C@]12CCC(=O)C=C1CC[C@@H]1[C@@H]2C(=O)C[C@@]2(C)[C@H]1CC[C@]2(O)C(=O)CO | 19.57 pg
* C=C1CC[C@H](O)C/C1=C/C=C1\CCC[C@]2(C)[C@@H]([C@H](C)/C=C/[C@H](C)C(C)C)CC[C@@H]12 | 23.87 pg
* CCOC(=O)OC(C)OC1=C(C(=O)Nc2ccccn2)N(C)S(=O)(=O)c2ccccc21 (centres undefined) | 23.15 pg
* CN1CCC[C@@H]1CCO[C@](C)(c1ccccc1)c1ccc(Cl)cc1 | 25.1 pg
* CC(/C=C1\SC(=S)N(CC(=O)O)C1=O)=C\c1ccccc1 | 25.1 pg
* CCc1ccc(C(=O)C(C)CN2CCCCC2)cc1 (centres undefined) | 23.73 pg

====

- Organism: Rattus norvegicus
- assayText: DrugMatrix - Regimen: Daily Repeat
- Assay type: toxicity, organism-based, Sprague-Dawley
- Set-up: regimen Daily Repeat, gender Male, age 6-8 weeks
- condition: in vivo, po, 0 mg/kg, 72 h, tissue Plasma, route oral GAVAGE, dose level Control, time 3 day, vehicle .5 % CMC
propertyLabel: POTASSIUM (MEQ/L)

* CCC[C@@H]1C[C@@H](C(=O)N[C@@H]([C@H]2O[C@H](SC)[C@H](O)[C@@H](O)[C@H]2O)[C@@H](C)O)N(C)C1 | 7.13
* NCC(=O)O | 6.23
* CC[C@H]1OC(=O)[C@H](C)[C@@H](O[C@H]2C[C@@](C)(OC)[C@@H](O)[C@H](C)O2)[C@H](C)[C@@H](O[C@@H]2O[C@H](C)C[C@H](N(C)C)[C@H]2O)[C@](C)(O)C[C@@H](C)/C(=N\OCOCCOC)[C@H](C)[C@@H](O)[C@]1(C)O | 7.03
* CC(C)[C@H](N)C(=O)OCCOCn1cnc2c(=O)[nH]c(N)nc21 | 6.37
* Cc1c(-c2ccccc2)oc2c(C(=O)OCCN3CCCCC3)cccc2c1=O [FLAVOXATE] | 6.2
* CN1CCC[C@@H]1CCO[C@](C)(c1ccccc1)c1ccc(Cl)cc1 | 6.21
* CCOC(=O)OC(C)OC1=C(C(=O)Nc2ccccn2)N(C)S(=O)(=O)c2ccccc21 (configuration not stated) | 6.52
